Parameter IC50: see the listing below.
Target: Granzyme B (human lymphocytes) (Homo sapiens (Human), UniProt P10144)
Sequence (P10144 21-247): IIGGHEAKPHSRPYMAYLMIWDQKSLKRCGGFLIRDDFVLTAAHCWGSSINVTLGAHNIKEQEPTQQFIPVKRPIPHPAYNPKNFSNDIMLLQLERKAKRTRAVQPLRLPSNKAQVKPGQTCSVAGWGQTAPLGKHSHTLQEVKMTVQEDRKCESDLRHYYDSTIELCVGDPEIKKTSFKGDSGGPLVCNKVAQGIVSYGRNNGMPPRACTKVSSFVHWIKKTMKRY
Experiment: human Granzyme B biochemical assay
Conditions: Granzyme B (human lymphocytes) 5 nM, substrate Ac-IETD-AFC 200 μM, Cpd incubation with enzyme 30 mins, 22° C., read time 60 mins; read-out: IC50
measure: IC50

compound="O=C(Cc1csc2ccccc12)N[C@@H](Cc1ccc(F)cc1)C(=O)N[C@H]1CCc2cccc3c2N(C1=O)[C@H](C(=O)NCc1c[nH]nn1)C3 [Compound C011]" measurement="> 5000 nM"
compound="O=C(Cc1csc2ccccc12)N[C@@H](Cc1ccccc1)C(=O)N[C@H]1CCc2cccc3c2N(C1=O)[C@H](C(=O)NCc1c[nH]nn1)C3 [Compound C004]" measurement="> 5000 nM"
compound="CC[C@H](C)[C@H](NC(=O)c1ccccc1OC)C(=O)N[C@H]1CCc2cccc3c2N(C1=O)[C@H](C(=O)NCc1c[nH]nn1)C3 [Compound C060]" measurement="1 to 300 nM"
compound="CC(=O)N[C@@H](Cc1ccccc1)C(=O)N[C@H]1CCc2cccc3c2N(C1=O)[C@H](C(=O)NCc1c[nH]nn1)C3 [Compound C026]" measurement="1000 to 5000 nM"
compound="CCC(CC)[C@H](NC(=O)c1ccccc1)C(=O)N[C@H]1CCc2cccc3c2N(C1=O)[C@H](C(=O)NCc1c[nH]nn1)C3 [Compound C073]" measurement="301 to 1000 nM"
compound="O=C(N[C@H](C(=O)N[C@H]1CCc2cccc3c2N(C1=O)[C@H](C(=O)NCc1c[nH]nn1)C3)C1CCCC1)c1ccccc1 [Compound C076]" measurement="1 to 300 nM"
compound="CC[C@H](C)[C@H](NC(=O)c1ccccc1)C(=O)N[C@H]1CCc2cccc3c2N(C1=O)[C@H](C(=O)NCc1c[nH]nn1)C3 [Compound C039]" measurement="1 to 300 nM"
compound="Cc1ccc(C(=O)N[C@H](C(=O)N[C@H]2CCc3cccc4c3N(C2=O)[C@H](C(=O)NCc2c[nH]nn2)C4)C(C)C)cc1 [Compound C052]" measurement="1 to 300 nM"
compound="CC(=O)N[C@H](C(=O)N[C@H]1CCc2cccc3c2N(C1=O)[C@H](C(=O)N[C@@H](CCC(=O)O)C(=O)O)C3)C(C)C [Compound C094]" measurement="> 5000 nM"
compound="CC[C@H](C)[C@H](NC(=O)COCCF)C(=O)N[C@H]1CCc2cccc3c2N(C1=O)[C@H](C(=O)NCc1cccs1)C3 [Compound C106]" measurement="> 5000 nM"
compound="CC(=O)N[C@H](C(=O)N[C@H]1CCc2cccc3c2N(C1=O)[C@H](C(=O)NCC(=O)O)C3)C(C)C [Compound C085]" measurement="1000 to 5000 nM"
compound="O=C(N[C@H](C(=O)N[C@H]1CCc2cccc3c2N(C1=O)[C@H](C(=O)NCc1c[nH]nn1)C3)C1CCC1)c1ccccc1 [Compound C084]" measurement="1 to 300 nM"

---

Biological target: Granzyme B (human lymphocytes) (Homo sapiens (Human), UniProt P10144)
Experiment: human Granzyme B biochemical assay
Settings: Granzyme B (human lymphocytes) 5 nM, substrate Ac-IETD-AFC 200 μM, Cpd incubation with enzyme 30 mins, 22° C., read time 60 mins; read-out: IC50
pIC50: −log10 of the molar value.
measure: pIC50

compound="CCC(CC)[C@H](NC(C)=O)C(=O)N[C@H]1CCc2cccc3c2N(C1=O)[C@H](C(=O)NCc1c[nH]nn1)C3 [Compound C074]" measurement="6.52 to 9.00"
compound="O=C(N[C@@H](CO)C(=O)N[C@H]1CCc2cccc3c2N(C1=O)[C@H](C(=O)NCc1c[nH]nn1)C3)c1ccccc1 [Compound C040]" measurement="< 5.30"
compound="CC(C)[C@H](NC(=O)c1cccnc1)C(=O)N[C@H]1CCc2cccc3c2N(C1=O)[C@H](C(=O)NCc1c[nH]nn1)C3 [Compound C070]" measurement="6.52 to 9.00"
compound="CC[C@H](C)[C@H](NC(=O)COCCF)C(=O)N[C@H]1CCc2cccc3c2N(C1=O)[C@H](C(=O)NCc1ccccn1)C3 [Compound C121]" measurement="< 5.30"
compound="CC([C@H](NC(=O)c1ccccc1)C(=O)N[C@H]1CCc2cccc3c2N(C1=O)[C@H](C(=O)NCc1c[nH]nn1)C3)C(F)(F)F (stereo partly shown) [Compound C055]" measurement="6.52 to 9.00"
compound="O=C(Cc1ccccc1)N[C@@H](Cc1ccc(O)cc1)C(=O)N[C@H]1CCc2cccc3c2N(C1=O)[C@H](C(=O)NCc1c[nH]nn1)C3 [Compound C021]" measurement="5.30 to 6.00"
compound="CC[C@H](C)[C@H](NC(=O)COCCF)C(=O)N[C@H]1CCc2cccc3c2N(C1=O)[C@H](C(=O)NCc1cccc(C)c1)C3 [Compound C128]" measurement="< 5.30"
compound="CC[C@H](C)[C@H](NC(=O)COCCF)C(=O)N[C@H]1CCc2cccc3c2N(C1=O)[C@H](C(=O)NCc1nn[nH]n1)C3 [Compound C119]" measurement="6.52 to 9.00"
compound="CC[C@H](C)[C@H](NC(=O)c1ccccn1)C(=O)N[C@H]1CCc2cccc3c2N(C1=O)[C@H](C(=O)NCc1c[nH]nn1)C3 [Compound C066]" measurement="6.52 to 9.00"
compound="CC[C@H](C)[C@H](NC(=O)COCCF)C(=O)N[C@H]1CCc2cccc3c2N(C1=O)[C@H](C(=O)NCc1ncn[nH]1)C3 [Compound C163]" measurement="< 5.30"
compound="CC(=O)N[C@H](C(=O)N[C@H]1CCc2cccc3c2N(C1=O)[C@H](C(=O)N[C@H](C)C(=O)O)C3)C(C)C [Compound C087]" measurement="< 5.30"
compound="CC(C)[C@H](NC(=O)c1ccccc1)C(=O)N[C@H]1COc2cccc3c2N(C1=O)[C@H](C(=O)NCc1c[nH]nn1)C3 [Compound C100]" measurement="6.52 to 9.00"
compound="CC[C@H](C)[C@H](NC(=O)c1ccnc(F)c1)C(=O)N[C@H]1CCc2cccc3c2N(C1=O)[C@H](C(=O)NCc1c[nH]nn1)C3 [Compound C141]" measurement="6.52 to 9.00"
